Assay summary: Half-life was determined in rat after intravenous administration (0.5 mg/kg)
Format: ADME, organism-based
Applied conditions: in vivo
In this section we review reported half-life values for a set of compounds.
Give the number; h is assumed, so skip it.

Some solved cases for reference:
CCCc1cc(Oc2ccc(OC)cc2)ccc1OCCCOc1ccc(C2SC(=O)NC2=O)cc1 (stereo not drawn) | 2.8
CN(CCOc1ccc(CC2SC(=O)NC2=O)cc1)c1ccccn1 (stereo not drawn) | 1.2
CCCc1cc(Oc2ccc(S(C)(=O)=O)cc2)ccc1OCCCOc1ccc(C2SC(=O)NC2=O)cc1 (stereo not drawn) | 2.8
CCCc1cc(Oc2ccccc2)ccc1OCCCOc1ccc(C2SC(=O)NC2=O)cc1 (stereo not drawn) | 2.3
CCCc1cc(Oc2ccccc2)ccc1OCCCOc1ccc(C2SC(=O)NC2=O)cc1F (stereo not drawn) | 1.7
CCCc1cc(Oc2ccc(Cl)cc2)ccc1OCCCOc1ccc(C2SC(=O)NC2=O)cc1 (stereo not drawn) | 5.4
CCCc1cc(Oc2ccc(F)cc2)ccc1OCCCOc1ccc(C2SC(=O)NC2=O)cc1 (stereo not drawn) | 2.1

Query: What value of half-life has been reported for the following compound? CCCc1cc(Oc2ccc(-c3ccccc3)cc2)ccc1OCCCOc1ccc(C2SC(=O)NC2=O)cc1 (stereo not drawn)
Response: 2.2

Provenance of the data: ChEMBL document CHEMBL1136397
